# Substrate: F protein of hMPV virus strain B1 (human metapneumovirus, strain B1)
# assay.procedure: cell-based or functional assay
Criterion: EC50 (nM), plaque reduction, hMPV B1, Vero cells strictly less than 9 nM. Met: yes (1). Not met: no (0).

Some solved entries appear below for comparison.
DEFDKKIEEVNKKIEESLKKIEESDKKLEAAAKK (modifications not checked) [Compound 17] | yes (1)
WDEFDASIEEVNRRIEESLRRIEESDRRLEEVEAAAKK (modifications not checked) [Compound 43] | yes (1)
SDELVNKKIEFDKKINQSLKKIEESDKKKLEAAAKK (modifications not checked) [Compound 51] | yes (1)
WDEFDKKIEEVNKKIEESLKKIEESDKKLEEVNEAAAKK (modifications not checked) [Compound 41] | no (0)
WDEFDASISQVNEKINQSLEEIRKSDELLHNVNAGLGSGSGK (modifications not checked) [Compound 27] | no (0)

Then there is this binder:
Hi there! Is EC50 (nM), plaque reduction, hMPV B1, Vero cells for DEFDKKKIEEVNKKIEESLKKIEESDKKLEEVEAAAKK (modifications not checked) [Compound 22] below 9 nM, do you know? no (0)

Recorded values, source patent US20260250325A1.
